Origin of the recorded values: patent US20090280138A1

- STUDY TARGET: T1, MHC class I allele A*0301 monomer (human, biotinylated, bound to streptavidin-coated plate)
- T1 construct: also called A3; HLA-A3
- ASSAY TEXT: iTopia, multiparametric iScore

| BINDER | iScore |
| --- | --- |
| SYVFLGIVL [5T4 9-mer peptide 178] | 0 |
| ESLHLEDNA [5T4 9-mer peptide 131] | 0 |
| LKETEVVQG [5T4 9-mer peptide 155] | 0 |
| VFLGIVLAL (also called VFLGIVLAL) [5T4 9-mer peptide 179] | 0 |
| LTYVSFRNL [5T4 9-mer peptide 125] | 0.157 |
| YPEKMRNRV [5T4 9-mer peptide 163] | 0 |
